Numbers sourced from PubChem BioAssay (NCI).

Known TGI of a selection of compounds
tested on: K-562 leukemia; test: NCI tumour cell line growth inhibition, 48 h

// below: answered compounds
- compound: "O=c1c2cc(I)ccc2nc(-c2cccs2)n1-c1ccc(O)cc1"
  tested_system: "K-562 leukemia"
  experimental_value: "> 100 µM"
- compound: "CC1(C)CC(=O)c2c(nc3ccc4ccccc4c3c2-c2ccc(NC(=O)CCCCCCCCC(=O)Nc3ccc(-c4c5c(nc6ccc7ccccc7c46)CC(C)(C)CC5=O)cc3)cc2)C1"
  tested_system: "K-562 leukemia"
  experimental_value: "> 100 µM"
- compound: "COC(=O)C(Cc1ccccc1)NP(=O)(O)OCC1OC(n2cc(F)c(=O)[nH]c2=O)CC1O (configuration not stated)"
  tested_system: "K-562 leukemia"
  experimental_value: "> 100 µM"
- compound: "Oc1c([Si](c2ccccc2)(c2ccccc2)c2ccccc2)cc2ccccc2c1-c1c(O)c([Si](c2ccccc2)(c2ccccc2)c2ccccc2)cc2ccccc12"
  tested_system: "K-562 leukemia"
  experimental_value: "> 100 µM"
- compound: "CC[C@H](CO)Nc1nc(NCc2ccccc2)n2ncc(C(C)C)c2n1"
  tested_system: "K-562 leukemia"
  experimental_value: "7.38 µM"
- compound: "O=c1oc2ccccc2cc1-c1cn2cc(Cl)ccc2n1"
  tested_system: "K-562 leukemia"
  experimental_value: "> 100 µM"
- compound: "COC(=O)c1cc(Cl)ccc1NC(=O)c1ccc([N+](=O)[O-])cc1"
  tested_system: "K-562 leukemia"
  experimental_value: "> 100 µM"
- compound: "CCOC(=O)Cc1cc(OC)c(OC)cc1/C(Cl)=C(\\C=O)c1ccc(OC)c(OC)c1"
  tested_system: "K-562 leukemia"
  experimental_value: "56.5 µM"
- compound: "N#Cc1ccccc1-c1nc2c3c(c(N)ccc3n1)C(=O)c1ccccc1-2"
  tested_system: "K-562 leukemia"
  experimental_value: "> 100 µM"
- compound: "O=C(Nc1cccc(NC(=O)Nc2cc(C(F)(F)F)ccc2Cl)c1)Nc1cc(C(F)(F)F)ccc1Cl"
  tested_system: "K-562 leukemia"
  experimental_value: "44.7 µM"

Now take the following compound into account.
Note to self: TGI recorded for CC(=O)c1c(C(F)(F)F)n([O-])c2cc(Cl)c(Cl)cc2[n+]1=O was 3.42 µM

====

tested on: HT29 colon; assay: NCI tumour cell line growth inhibition, 48 h
Listed here: items and their measured TGI.

These recorded examples may help you get a feel for the data.
- smiles: "CN1CC[C@@H](c2c(O)cc(O)c3c(=O)cc(-c4ccccc4Cl)oc23)[C@@H]1CO"
  TGI: "6.66 µM"
- smiles: "O=C(NN1C(=O)CSC12CCCC2)c1[nH]c2ccc(Br)cc2c1-c1ccccc1"
  TGI: "> 100 µM"

Reported TGI ( CCOC(=O)NC(=O)c1cn(CCCCCCOC(=O)NCCCCCCNC(=O)OCCCCCCn2cc(C(=O)NC(=O)OCC)c(=O)[nH]c2=O)c(=O)[nH]c1=O ) = > 100 µM

Data point: O=C(Nc1ccccc1)N(CCCCN(Cc1ccccc1)C(=O)Nc1ccccc1)Cc1ccccc1 ; TGI = > 100 µM

====

Listing: TGI of selected compounds
system: SNB-78 CNS; assay: NCI tumour cell line growth inhibition, 48 h

Consider the worked cases shown below.
- compound: "COc1c(Cl)cc(NC(=S)C#N)cc1Cl"
  observed_property: "TGI"
  experimental_value: "85.9 µM"
- compound: "O=c1c2ccccc2nc(-c2ccccc2)n1NC1OC(CO)C(O)C(O)C1O (configuration not stated)"
  observed_property: "TGI"
  experimental_value: "> 100 µM"
- compound: "COc1ccc(C(=O)C(c2ccc(OC)cc2)C2(O)C(=O)Nc3c2ccc(Cl)c3C)cc1 (configuration not stated)"
  observed_property: "TGI"
  experimental_value: "> 100 µM"
- compound: "CN(/N=C/c1cccc2cccnc12)c1ccccc1"
  observed_property: "TGI"
  experimental_value: "> 100 µM"
- compound: "C[Si](C)(C)c1ccc(-c2sc(-c3ccc([Si](C)(C)C)s3)c3c2C[Si]2(C3)Cc3c(-c4ccc([Si](C)(C)C)s4)sc(-c4ccc([Si](C)(C)C)s4)c3C2)s1"
  observed_property: "TGI"
  experimental_value: "> 100 µM"

The recorded TGI for Cc1ccc(Nc2nc(C)c(C(/C=C/c3ccc(/C=C/C(=N/NC(=O)C[n+]4ccccc4)c4sc(Nc5ccc(C)cc5[N+](=O)[O-])nc4C)cc3)=N\NC(=O)C[n+]3ccccc3)s2)c([N+](=O)[O-])c1 is > 100 µM

Per the records, this compound ( Cc1cccc(C(C)C)c1NC(=O)CC1C(=O)Nc2ccccc2S1(=O)=O (configuration not stated) ) has TGI equal to > 79.3 µM

====

Entries and their TGI values follow.
test system: OVCAR-3 ovarian; assay: NCI tumour cell line growth inhibition, 48 h

Some solved entries appear below for comparison.
- molecule: "COc1cccc(-n2ncc3c(N/N=C/c4ccncc4)ncnc32)c1"
  TGI: "> 25 µM"
- molecule: "C[C@]12CCC3[C@@H](CC[C@@H]4c5nonc5CC[C@]34C)C1C/C(=N/O)C2=O (stereo not given in full)"
  TGI: "> 100 µM"
- molecule: "CCOP(=O)(OCC)C1CC(n2cc(C)c(=O)[nH]c2=O)OC1CO (stereo not given)"
  TGI: "> 100 µM"

Noted for CC#CC(=O)SCCNC(=O)CC : its TGI reads > 10 µM

get_value(item= Cc1c2c(n(CCc3ccc(Cl)cc3)c1C)NC(c1ccccc1)C(C#N)S2(=O)=O (stereo not given) , readout=TGI) returns > 100 µM

Recorded result, COc1ccc(/C=C2\S/C(=N/Nc3nc(-c4ccccc4)cs3)NC2=O)cc1OC , TGI: 55.8 µM

Just so you know, measured TGI for CN(C)c1ccc2c(c1)OC(N)=C(C#N)C2c1ccc2c(c1)CCO2 (stereo not given) came out at 1.88 µM

Form field TGI, entry COC(=O)C1=C(c2cc(OC)c(OC)c(OC)c2)OC(c2ccc(OC)c(OC)c2)C1 (stereo not given) : > 100 µM

Value of measured TGI for the entry COc1c(Cl)cc(NC(=S)C#N)cc1Cl : > 62.8 µM

Consider Cc1cc(N2CCCC2)nc(N(CCNc2ccnc3cc(Cl)ccc23)Cc2ccco2)n1 . Its measured TGI is 42.3 µM

Given item CC1=NN(c2nc(N)nc(/C(C#N)=C/c3cccn3-c3cc(Cl)cc(Cl)c3)n2)C(C)(C)C1 , the value recorded as its TGI is > 100 µM

Entry under test: CC(C)c1cccc2sc(NC(=O)C(=O)C(C#N)c3cccc4ccccc34)nc12 (stereo not given) . Its TGI was > 100 µM

Kindly note the recorded TGI for COc1c(O)cc(O)c2c(=O)cc(-c3ccccc3)oc12 , which is 72.5 µM

The recorded TGI for entry N#Cc1c(-c2ccc(Cl)cc2)c2c(n(C3OC(CO)C(O)C(O)C3O)c1=S)CCC2 (stereo not given) equals 74.3 µM

Entry CC1(C)CC(C)(C)C1=NNC(N)=O — recorded TGI = > 100 µM

Documented TGI of O=C(OCCN=c1c2ccccc2ccc2ccccc12)c1ccc([N+](=O)[O-])cc1 : > 100 µM

COc1ccc(OC)c(-c2c(C#N)c(N)nc(N3CCOCC3)c2C#N)c1 has a reported TGI of > 100 µM

Memo: CC(C)(O)CC(=O)NCCn1ccc2ncnc(Nc3ccc(Oc4cccc(C(F)(F)F)c4)c(Cl)c3)c21 , reported TGI: > 10 µM

Nc1nc(Nc2ccc(C3CCC(N4CCOCC4)CC3)cc2)nn1-c1ccccn1 (stereo not given) yielded TGI of 44.6 µM

// TGI lookup, molecule = COC(=O)c1cc2ccc(OC(C)=O)c(OC(C)=O)c2cn1 , result: 30.9 µM

COc1ccc(C(=O)c2cc3c(N)c(C(=O)Nc4cccc5ccccc45)sc3nc2C)cc1 has a reported TGI of > 50 µM

TGI in this record for O=C1c2c(O)cccc2C(C2OC(CO)C(O)C(O)C2O)c2cc(CO)cc(O)c21 (stereo not given) : > 100 µM

====

test system: MOLT-4 leukemia; assay: NCI tumour cell line growth inhibition, 48 h; in the data active means GI50 below about 0.43 µM; inactive means the rest
Your answer must be one of the following: active, inactive

Before answering, review these 3 worked examples.
- compound: "O=[N+]([O-])c1cccc([As]=[As]c2cccc([N+](=O)[O-])c2)c1 (centres undefined)"
  label_value: "active"
- compound: "CN1CC[C@@H](c2c(O)cc(O)c3c(=O)cc(-c4ccccc4Cl)oc23)[C@@H]1CO"
  label_value: "active"
- compound: "COc1ccc(C(=O)/C=C/c2c(Cl)c3c(c(OC)c2Cl)OCC(=O)N3)cc1"
  label_value: "inactive"

In the following, a different compound is considered.
Recorded test call requested for C[C@@H]1CC[C@H]2C(C(O)CCCCC(O)C3=C(C(F)(F)F)O[C@@H]4O[C@@]5(C)CC[C@H]6[C@H](C)CC[C@@H]3[C@@]46OO5)=C(C(F)(F)F)O[C@@H]3O[C@@]4(C)CC[C@@H]1[C@]32OO4 (some centres undefined) inactive
